- Test system: Plasmodium berghei
- assayProtocol: Luciferase/luciferin-expressing antifolate-resistant parasites were used to infect a culture of HepG2 cells that were pre-incubated with compounds. Infected hepatocytes emit light due to the luciferase reaction. Assay results are presented as the percent inhibition of light emission compared to control. […]
- Type: functional
- statedConditions: sporozoite, HEPG2TOX_HILL_SLOPE 4.85, 2.53, HEPG2TOX_R_SQUARED 0.902, 0.960, PBLUC_HILL_SLOPE 2.45, PBLUC_R_SQUARED 0.68, read-out: LUCIFERASE INFECTION ASSAY - IC50
quantityKind: pIC50
Keep in mind that pIC50 stands for -log10 of concentration in molar terms.

# get_value(readout= pIC50, system= Plasmodium berghei) for COc1ccc(/C=C/C(=O)Nc2ccc(C34CC5CC(CC(O)(C5)C3)C4)cc2)cc1OC 5.70
